Reference source: the supplement of paper PMC10567573

B1: TRIM39 (parent)
chain: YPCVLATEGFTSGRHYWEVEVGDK

Variants of: B1
Assay: protein stability index of a GFP-peptide fusion (GPS, HEK-293T) (PSI 1-6); higher = more stable;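 also: lentivirally expressed fusions sorted by FACS into six bins by GFP to DsRed ratio, PSI derived from sequencing read proportions per bin multiplied by bin number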
Conditions: c terminus: a fixed tail appended
Class membership depends on protein stability index alone; the intervals are c1 = under 2, c2 = from 2 up to 3, c3 = 3 and over

Solved entries:
YPCVLATEGFTSGRHYWNVEVGDK [E18N] : c2
GPCVLATEGFTSGRHYWEVEVGDK [Y1G] : c3
YPCVLATEAFTSGRHYWEVEVGDK [G9A] : c2
YPCVLATEGFTSGRQYWEVEVGDK [H15Q] : c2
YPCVLATEGFTPGRHYWEVEVGDK [S12P] : c1
YPCVLATEGFTSGRHYWEVWVGDK [E20W] : c2
YPCVLATEGFTSARHYWEVEVGDK [G13A] : c1
MPCVLATEGFTSGRHYWEVEVGDK [Y1M] : c3

Challenge: Classify this variant: YPCVLATEGFTSGRHYWEVEVGDY [K24Y]
Response given: c2
